The values you see were collected from ChEMBL document CHEMBL6120985.

Assignment: determine reported Emax for the given compounds.
Target Entity: Protein cereblon/Poly [ADP-ribose] polymerase 1 (Homo sapiens, UniProt P09874+Q96SW2)
Sequence (P09874 2-1014 limits assumed): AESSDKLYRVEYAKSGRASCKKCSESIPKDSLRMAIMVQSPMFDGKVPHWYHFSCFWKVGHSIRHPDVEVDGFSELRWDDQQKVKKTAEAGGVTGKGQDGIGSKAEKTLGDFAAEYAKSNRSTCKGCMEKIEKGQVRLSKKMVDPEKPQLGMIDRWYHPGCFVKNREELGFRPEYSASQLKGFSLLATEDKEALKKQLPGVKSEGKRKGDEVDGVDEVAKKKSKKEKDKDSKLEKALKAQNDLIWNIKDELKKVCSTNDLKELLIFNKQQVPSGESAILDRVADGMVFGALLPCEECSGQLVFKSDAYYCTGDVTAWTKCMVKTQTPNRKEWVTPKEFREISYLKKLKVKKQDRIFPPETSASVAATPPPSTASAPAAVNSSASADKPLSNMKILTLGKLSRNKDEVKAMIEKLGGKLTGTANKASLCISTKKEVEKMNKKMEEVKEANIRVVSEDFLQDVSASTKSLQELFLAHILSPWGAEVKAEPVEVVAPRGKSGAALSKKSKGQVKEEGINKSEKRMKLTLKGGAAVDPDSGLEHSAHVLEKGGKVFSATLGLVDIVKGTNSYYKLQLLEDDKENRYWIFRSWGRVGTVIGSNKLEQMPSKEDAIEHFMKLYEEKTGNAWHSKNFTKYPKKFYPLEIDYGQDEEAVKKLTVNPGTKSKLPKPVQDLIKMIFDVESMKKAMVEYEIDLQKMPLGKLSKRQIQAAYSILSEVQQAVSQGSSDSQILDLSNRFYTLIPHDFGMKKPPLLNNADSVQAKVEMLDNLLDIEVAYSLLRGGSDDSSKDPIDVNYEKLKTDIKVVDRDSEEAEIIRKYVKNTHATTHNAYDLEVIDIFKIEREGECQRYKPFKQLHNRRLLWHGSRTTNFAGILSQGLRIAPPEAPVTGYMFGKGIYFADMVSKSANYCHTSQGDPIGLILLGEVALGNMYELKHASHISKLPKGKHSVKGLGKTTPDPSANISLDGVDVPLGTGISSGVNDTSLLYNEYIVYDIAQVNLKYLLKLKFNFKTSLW
Sequence (Q96SW2 whole entry partner): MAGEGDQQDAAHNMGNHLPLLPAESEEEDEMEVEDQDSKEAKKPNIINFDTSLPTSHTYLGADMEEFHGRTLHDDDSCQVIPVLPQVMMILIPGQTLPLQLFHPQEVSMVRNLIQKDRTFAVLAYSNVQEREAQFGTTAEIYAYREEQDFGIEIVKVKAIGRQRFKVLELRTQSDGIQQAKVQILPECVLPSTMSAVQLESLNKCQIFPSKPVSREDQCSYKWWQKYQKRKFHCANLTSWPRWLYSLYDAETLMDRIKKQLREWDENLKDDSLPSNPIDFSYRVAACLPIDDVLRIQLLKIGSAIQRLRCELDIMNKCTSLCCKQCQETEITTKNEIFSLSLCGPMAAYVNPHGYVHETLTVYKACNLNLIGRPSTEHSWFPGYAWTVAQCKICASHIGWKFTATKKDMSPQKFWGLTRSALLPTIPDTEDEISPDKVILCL
Protocol Description: PROTAC activity at CRBN/PARP1 in human HCT-116 cells assessed as maximum degradation of PARP1 relative to control
Format: cell-based
# value in %; strip the unit string

The compound NC(=O)c1cccc2cn(-c3ccc([C@@H]4CCCN(CCC5CCN(CCC6CCN(CC7CCN(c8ccc9c(c8)C(=O)N(C8CCC(=O)NC8=O)C9=O)CC7)CC6)CC5)C4)cc3)nc12 (stereo partly specified) showed Emax equal to 86.2

The compound NC(=O)c1cccc2cn(-c3ccc([C@@H]4CCCN(C(=O)CC5CCN(CCC6CCN(CC7CCN(c8ccc9c(c8)C(=O)N(C8CCC(=O)NC8=O)C9=O)CC7)CC6)CC5)C4)cc3)nc12 (stereo partly specified) showed Emax equal to 57.1

The compound NC(=O)c1cccc2cn(-c3ccc([C@@H]4CCCN(C(=O)C5CCN(CC6CN(c7ccc8c(c7)C(=O)N(C7CCC(=O)NC7=O)C8=O)C6)CC5)C4)cc3)nc12 (stereo partly specified) showed Emax equal to 53.9

The compound NC(=O)c1cccc2cn(-c3ccc([C@@H]4CCCN(C(=O)CC5CCN(CCC6CCN(c7ccc8c(c7)C(=O)N(C7CCC(=O)NC7=O)C8=O)CC6)CC5)C4)cc3)nc12 (stereo partly specified) showed Emax equal to 30.1

The compound NC(=O)c1cccc2cn(-c3ccc([C@@H]4CCCN(C(=O)CCCCCCNc5ccc6c(c5)C(=O)N(C5CCC(=O)NC5=O)C6=O)C4)cc3)nc12 (stereo partly specified) showed Emax equal to 37.3

The compound NC(=O)c1cccc2cn(-c3ccc([C@@H]4CCCN(C(=O)CC5CCN(C(=O)CC6CCN(C(=O)C7CCN(c8ccc9c(c8)C(=O)N(C8CCC(=O)NC8=O)C9=O)CC7)CC6)CC5)C4)cc3)nc12 (stereo partly specified) showed Emax equal to 6.96

The compound NC(=O)c1cccc2cn(-c3ccc([C@@H]4CCCN(C(=O)CC5CCN(C(=O)CC6CCN(CC7CN(c8ccc9c(c8)C(=O)N(C8CCC(=O)NC8=O)C9=O)C7)CC6)CC5)C4)cc3)nc12 (stereo partly specified) showed Emax equal to 47.6

The compound NC(=O)c1cccc2cn(-c3ccc([C@@H]4CCCN(C(=O)CC5CCN(C(=O)CC6CCN(CC7CCN(c8ccc9c(c8)C(=O)N(C8CCC(=O)NC8=O)C9=O)C7)CC6)CC5)C4)cc3)nc12 (stereo partly specified) showed Emax equal to 49.8

The compound NC(=O)c1cccc2cn(-c3ccc([C@@H]4CCCN(CCC5CCN(CCC6CCN(CC7CN(c8ccc9c(c8)C(=O)N(C8CCC(=O)NC8=O)C9=O)C7)CC6)CC5)C4)cc3)nc12 (stereo partly specified) showed Emax equal to 71

The compound NC(=O)c1cccc2cn(-c3ccc([C@@H]4CCCN(C(=O)CC5CCN(CC6CCN(c7ccc8c(c7)C(=O)N(C7CCC(=O)NC7=O)C8=O)CC6)CC5)C4)cc3)nc12 (stereo partly specified) showed Emax equal to 59.4

The compound NC(=O)c1cccc2cn(-c3ccc([C@@H]4CCCN(C(=O)COCCOCCOCCOCCOCCNc5ccc6c(c5)C(=O)N(C5CCC(=O)NC5=O)C6=O)C4)cc3)nc12 (stereo partly specified) showed Emax equal to 47.7
